Each recorded value in this set is attributed to patent US9718790B2.

Would you kindly list IC50 for each of these molecules?
biological target: human P2X3 receptor (Homo sapiens (Human)); test: Evaluation of human P2X3 receptor inhibitory activity (Fluo-3 calcium fluorescence, FDSS 3000, ATP stimulation); format: cell-based; details: C6BU-1 cells stably expressing human P2X3 receptor;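 further: stimulus was 50 nM ATP with fluorescence followed for 3 min, and the response per well was peak post-ATP fluorescence divided by the reading at measurement start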
Sequence (P56373 whole entry): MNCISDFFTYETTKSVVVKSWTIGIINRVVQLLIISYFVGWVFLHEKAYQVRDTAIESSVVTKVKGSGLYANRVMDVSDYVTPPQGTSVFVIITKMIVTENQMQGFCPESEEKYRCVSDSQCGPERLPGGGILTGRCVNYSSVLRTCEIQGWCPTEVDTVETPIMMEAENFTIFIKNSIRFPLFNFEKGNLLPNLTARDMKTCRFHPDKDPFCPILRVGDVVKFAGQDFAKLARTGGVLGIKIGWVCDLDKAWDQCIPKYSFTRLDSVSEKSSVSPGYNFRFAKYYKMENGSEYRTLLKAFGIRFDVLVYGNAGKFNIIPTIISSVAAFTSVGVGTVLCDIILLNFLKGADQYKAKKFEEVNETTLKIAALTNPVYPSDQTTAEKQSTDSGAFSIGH
Form entry: value (µM) — number only.

Query: Fill blank: measured IC50 of the molecule CCOC(=O)[C@@H](C)Cn1c(=O)[nH]/c(=N\c2ccc3oc(CO)cc3c2)n(Cc2ccc(Cl)cc2)c1=O is ____.
Result: 0.061

Query: // query: CO/N=C(\Cn1c(=O)[nH]/c(=N\c2ccc(OC(C)C)c(F)c2)n(Cc2ccc(Cl)cc2)c1=O)C(=O)O
Result: 0.14

Query: Record: COCCOc1ccc(/N=c2\[nH]c(=O)n(C[C@H](C)C(=O)OC)c(=O)n2Cc2ccc(Cl)cc2)cc1
Result: 0.125
